Origin of the recorded values: the supplement of paper PMC12042874

- Run description: amyloid nucleation score (Sup35N fusion, yeast selection) (log enrichment); library NNK3; higher = more nucleation; inactive = no reads after selection;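 also: zero at mode of non-aggregating sequences after 7 days selection at 30°C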
Reported values of amyloid nucleation score for individual entries

Sequence chain	amyloid nucleation score
LVFVCARQSTIEVRGKQSRM	2.06
RYVTCNLEINTWDRVRGWHV	1.16
FCFLLKALTYHLS	-0.067
CFVLFLNLLVATGPIWINSP	0.477

====

- Run description: amyloid nucleation score (Sup35N fusion, yeast selection) (log enrichment); library NNK3; higher = more nucleation; inactive = no reads after selection

Substance	amyloid nucleation score
MLEYRVTARDGVLWEMGFGY	inactive
VCWMSVRDNNNGHFLIYSSD	inactive
ILAVAPVVPGVVLGRNCRAR	inactive
VWEFICVGVLC	2.65
IMVKVW	inactive
KVYSIYTNKNFGCFDYNWCI	inactive
YSTRPSYFLDLMLYIDTWVQ	inactive
YAALILGVVQCAGLILFYVI	inactive
SGFHERCFINQPVFST	inactive
HTWFNFVYEVRSNKLTP	inactive
FYFVGKYWRGDEYFDFRLAV	inactive
NSCLRLSSHRMMFLAIAVTC	inactive
ADCGHLTYLSSNSRSLGRRK	0.197
SLVGGICVRHREDVDTQKFK	inactive
MYKFCSY	inactive
SVSGKRFDVMVLFLHSSKRL	inactive
KQGVILTNRVYAFALGSSTH	inactive
RSRAFGDGKNWMHCRRYVM	inactive
VNHVIQNLVSNRSTWGICCT	inactive
WSRLDMMLRLLAVLLPVRLD	inactive
FQRFYYLCWPSIWNMFQGGG	inactive
CKRNKDGKWRRKTWRLVQFY	-1
SLVTFMLLMIKGMSGYFRTV	inactive
ESIRCFSTYKNGSIRSFRAL	inactive
LIRCCFPHMSGVLFMKFTLT	inactive
VNLHLTVEQLSMLYRTNANV	1.07
LARLYYHFLEVHYVLCIC	inactive
IFLFSSRCALDNIVEPWFFW	inactive
EYKAPREFPSTNCIHFNLMT	inactive
PCTMDESRYLVMYFHFPMSV	inactive
GSSCRRINTEYSLAAYQSYE	inactive
SFSVPVELSEP	inactive
KSYLVFDPWGPAKSLFYTDM	inactive
ILCVFVYRSRAESYEL	0.446
WFGKPFYTYSKSSWRMLYQL	inactive
FVVSKLYMPRWASLLLCWRL	inactive
ICSSFDGQ	0.458
YLKMLSVLKWRKNISRFVLP	inactive
KAPRCGVKAMLKGVMGFRRR	0.531
TTNDWHTFSGMVIKGWHIGK	inactive
LFLGLVLAHPPDRVRLSTVL	inactive
YFSYLCGVRYLYCFKLCSSM	inactive
VGGLSSDPTADISFVVVFQD	0.089
IFIYGPLPPVRCYHYDWWNL	inactive
ADERRVIR	inactive
FEWLWIFWYNLFWLWGNYSI	inactive
HDNQFYVMLWAISAAYRLAS	inactive
IISDQEFSYETCDFSYFCKG	inactive
DVCGFYIHFRFTNKYQGVAS	inactive
YYLVYPRNIIMYKGNNFLKP	2.24
VLLCYNIVKPYNVSC	inactive
FSDCFSRLVYPRGNNLV	inactive
DYESCEIRVLETEWIGVGT	inactive
FKAWMSLKLSTRRLNSCVPR	inactive
AHITRGNKSGAVFASCRTWS	inactive
YVDNLACLNSFPIMPVFKVG	inactive
MVKTFVLMTLHLGLMVRFLF	inactive
RFIWIGIWKEGEGLADYSEK	inactive
WHSYTKLCGRTSPPSSTLTG	inactive
GDSIRSWNRGAVEIA	-0.377
FLVCHDYAYETVG	inactive
HGFSVTILTRVLTVGNSRRS	inactive
SLKSNTVCDNL	inactive

====

- Run description: amyloid nucleation score (Sup35N fusion, yeast selection) (log enrichment); library NNK3; higher = more nucleation; inactive = no reads after selection
Recorded endpoint: amyloid nucleation score

Substance	Reported measurement
DGMTKFRWSCVRWVCG	inactive
MYQVDMMLCTITDWVGSNWY	0.666
MFDIVNKTSELL	inactive
VLGDMVYGGHAL	inactive
WGTLTLCTGDAGLSMTGKWV	0.399
YFLQTEAEVSFEQEVVAISL	inactive
PTNDAYVVVMD	inactive
FTKSREWGFMDKPAINWVSC	inactive
RRWQVCVAGQDSEGTVKVML	0.108
VAPLANHKASRDSYAYVSGS	inactive
GWWRMAWLV	inactive
FLKLGDSGRVYLLCFLAQVS	inactive
ESAKFYLYSAR	inactive
LWLFSGCFGYYVILATLYFL	inactive
QILVLHIR	1.71
LACPWLTLIGYVQIRCNFDG	inactive
SAYAGYKRLGASEVILLSPY	inactive
IHWGRAGATEAAST	inactive
SGNTNDSSMHHQNLFFSA	inactive
GAMCIRWEG	inactive
GHPGNSAEADKCGHRQRRP	inactive
MVFLVVVWFVKNGWKCVYGS	inactive
NNRDDK	inactive
LRYWPVCLVQIAFDFTVTGV	1.97

====

- Run description: amyloid nucleation score (Sup35N fusion, yeast selection) (log enrichment); library NNK2; higher = more nucleation; inactive = no reads after selection

Substance	amyloid nucleation score
QLLRCNRRSKMLDR	-0.156
TVGIAKKNMVR	0.503
GYPSARIKSDMYWNPMNVPT	-0.114
ATQVMMGVAEYACLYNCTHM	8.22
SRFLFCVPHVDCWLLTWNLS	6.68
NMGIRRFKFYIVNA	-0.965
NMYNLGFLSYYLKISGYLLD	-1.85
AFYMIRH	3.66

====

- Run description: amyloid nucleation score (Sup35N fusion, yeast selection) (log enrichment); library NNK2; higher = more nucleation; inactive = no reads after selection

Substance	amyloid nucleation score
PTAVNSTMYSMYRTGNL	-0.294
GKEIRNNITMCGYLMQNICD	2.85
NCYMSVLILVRLLGSHLKQS	-0.249
YMSLNKTAVTCVCHM	-0.425
CNFEHFFYKVFRFLQWTVYE	-0.153
ADEVLYYGCVSSCLMFGVLI	-0.069
VTRLFGIREFRG	3.65
NGTLRAFVIKKVRIIDSRQV	4.09
RCNMLDRYPSVGRNPVLMVV	0.063
YVFYLVR	1.03
SCRGDKQERKPIHYVRHIWY	-0.798
GYDIISQKLGIQSYQKCTFI	-1.86
FSDDLVRDV	-0.505
YYFKFNSS	3.65
GYRLGHRRGGFGVLNGFYGD	-0.157
VCCKLEFVSKHFRCVNGCDE	9.26
NFYKEFGGMIAYLDKILREE	-1.13
SRVGFFS	0.072
LLPSLWV	-0.437
RSERPFAWVMALTFTCAGGL	3.47
QSGFEVSCLSDMDSCYRSRN	0.509
IFYSSLALVWLYNLMDRECT	2.18
TCFMRCRTCNLRVIHSDVF	5.55
TDNMDEMDREYLSCHKFCFG	3.69
YFWSFYEVISFDCYHLIIFS	0.004
LVAIDSAFCTLGMPSADPVS	-0.097
CVMTRRSTKCFSMSLLSIWL	6.5
TYMRGSLSEIGGTLL	1.06
NLFFVGPCELSRWLGFSNLQ	5.87
KLISCGCVLADWNMGYP	3.76
KSRFML	0.627
EVRSALYAYEGYLRVFRSFR	0.819
GFRNCWKWPHWVLAPMLYNS	0.007
VREYYRVERGSFGRISGGCN	-0.748
HLDYAGYIGDRSHTDFASGR	0.519
RIYNYWTIARKFFRV	-1.24
WRYDSWFKRKHCMLLYICQG	0.003
NYSGYLLNASVRRTMRRRVF	-1.18
KLDTLRFCVGAHLGTPTLCW	0.499
DGELVVWFMVMSWWNIKDSK	-0.446
HWKVENRLNSMEWKSMGGQN	3.97
LRGLSAPACKYQWQDEMYD	-0.628
LYLEMMCAIVWQQSYRHNRT	0.727
GFSWDNESFLCELKMGCLTG	-0.646
VHEPAQV	0.352
NVLGSRLKLMNEGIDLALIK	6.38
SFITDRADCRQWLLRNNIFA	-0.771
MVHHGGCAWMSSACTCNVHC	0.313
RVTYDFFILWC	4.46
AMLLNILVPYVYSKTGRGPV	1.88
HSAMFLYTKHVSPPGSWRVL	1.6
VAFNCNIEIISPAGDGETFV	-0.489
MLELSATMSVHVQRLNASGH	9.01
PSDSLVYVYDL	-0.41
DLRRGSRRWRKYGTGECGLL	0.43
MEGITRFSPPKNSEYIVLAG	-0.613
NTCGMRSLGKTFRIVSSLGS	0.285
INMGMYDSNVCDA	-0.034
WHGRCWTSAKLAYRTRKTMC	1.86
MVLVMCPLS	0.015
RSVPYSLCSMQLCTFHFEHS	8.38
CVVRSSAKRFDCRKFGRASN	0.599
